src = paper PMC6208284

measurementTarget: cytochrome bc 1 complex purified from Bos taurus (Bos taurus, UniProt P00125+P00157+P13272)
Construct: from tissue; host or cells: Native complex purified in house from bovine heart submitochondrial particles (Triton X-100, hydroxyapatite)
runDescription: dUQH2:cyt c3+ oxidoreductase activity of isolated BH‐bc 1
Format: biochemical
testSettings: immediate inhibition, five experiments; read-out: IC50 ± SD BH‐bc 1
# IC50 per entry
metricName: IC50 (µM)

{"columns": ["compound", "metricName", "observedResult"],
 "data": [
  ["C=C1CC[C@H]2O[C@]2(C)CC[C@@H]2[C@@H]1CC2(C)C [Caryo, caryophyllene oxide]", "IC50", 197],
  ["Cc1ccc(C(C)C)cc1O", "IC50", 421]
]}
